B1: Histone-lysine N-methyltransferase SETD2, residues 2382 to 2430; numbered along this chain, Q9BYW2 (parent)
chain: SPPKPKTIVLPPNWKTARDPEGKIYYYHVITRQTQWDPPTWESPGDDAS

- Variants of: B1
- Method notes: abundance fitness (aPCA) (normalised: wild type 0, dead -1); higher = more abundant; growth selection in yeast, the domain comes from the species named
- Measurement setup: Homo sapiens
Reported abundance fitness values are given for each entry in this list.
Readout type: abundance fitness

* K6L | -0.339
* K4N | -0.144
* V29A | 0.011
* T16G | -0.203
* D37T | 0.117
* T16I | -0.15
* S43I | -0.095
* Y26P | -0.765
* P5S | 0.163
* I30R | -0.018
* P38M | -0.043
* G45V | -0.177
* D19I | -0.584
* Y26K | -0.655
* P38T | -0.398
* P12H | -0.528
* Q33R | -0.318
* I30E | -0.307
* R32K | 0.13
* K4T | -0.275
* K4A | -0.836
* D47V | -0.063
* P39W | -0.987
* V9G | -0.167
* K23T | -0.147
* H28A | -1.06
* Y26T | -0.637
* W36D | -0.015
* G45C | -0.002
* P2L | 0.317
* T16D | -0.47
* R18K | -0.072
* W41R | 0.091
* S43A | -0.048
* Y25Q | -0.454
* T31W | -1.06
* D19A | -0.537
* T40V | 0.057
* D47H | -0.028
* G45M | -0.082
* P44G | -0.128
* K4V | -0.573
* P3Y | 0.335
* W41C | 0.04
* K23E | -0.433
* Q35W | -0.722

Values from the Human Domainome abundance scans (Beltran et al. 2025)
